Experiment: DRUGMATRIX: Calcium Channel Type L, Dihydropyridine radioligand binding (ligand: [3H] Nitrendipine)
Assay type: cell membranes, Rattus norvegicus, Wistar, Cerebral cortex, Membrane
Conditions: Not Active = under 50% inhibition at 10 µM
measuredParameter: Ki

>>> result("Cn1cnc([N+](=O)[O-])c1Sc1ncnc2nc[nH]c12 [AZATHIOPRINE]")
"Not Active"
>>> result("CC(C)NC[C@H](O)COc1cccc2[nH]ccc12")
"Not Active"
>>> result("O=c1[nH]cc(F)c(=O)[nH]1 [FLUOROURACIL]")
"Not Active"
>>> result("CC(C)(C)NC(=O)[C@@H]1CN(Cc2cccnc2)CCN1C[C@@H](O)C[C@@H](Cc1ccccc1)C(=O)N[C@H]1c2ccccc2C[C@H]1O.O")
"Not Active"
>>> result("CN[C@@H]1[C@@H](O)[C@@H](O[C@@H]2[C@@H](O)[C@H](O[C@H]3OC(CN)=CC[C@H]3N)[C@@H](N)C[C@H]2N)OC[C@]1(C)O [SISOMICIN]")
"Not Active"

Hi! Can you tell me Ki for each of these molecules?
1. CC1CN(c2cc3c(cc2F)c(=O)c(C(=O)O)cn3-c2ccc(F)cc2F)CCN1 (stereo not drawn) [TEMAFLOXACIN]
2. CN1C[C@H](C(=O)N[C@]2(C)O[C@@]3(O)[C@@H]4CCCN4C(=O)[C@H](Cc4ccccc4)N3C2=O)C=C2c3cccc4[nH]cc(c34)C[C@H]21 [ERGOTAMINE]
3. CCOC(=O)OC(C)OC1=C(C(=O)Nc2ccccn2)N(C)S(=O)(=O)c2ccccc21 (stereo not drawn) [AMPIROXICAM]
4. CC=CC(=O)N(CC)c1ccccc1C
5. O=C1CN=C(c2ccccc2)c2cc([N+](=O)[O-])ccc2N1 [NITRAZEPAM]
6. CC(C)n1c(/C=C/C(O)CC(O)CC(=O)O)c(-c2ccc(F)cc2)c2ccccc21 (stereo not drawn) [FLUVASTATIN]
7. NC(=O)c1ccccc1O [SALICYLAMIDE]
8. Nc1ccc(S(=O)(=O)Nc2ccnn2-c2ccccc2)cc1 [SULFAPHENAZOLE]

Not Active
Not Active
Not Active
Not Active
Not Active
Not Active
Not Active
Not Active
